Source listed as patent US20230312721A1.

Readings of koff for the listed binders
Experimental target: T1, 4Ig human B7-H3 (human, UniProt Q5ZPR3 29-466, limits assumed)
T1 construct: Soluble analyte in SPR; also called 4Ig-B7H3; 4Ig B7H3
T1 sequence: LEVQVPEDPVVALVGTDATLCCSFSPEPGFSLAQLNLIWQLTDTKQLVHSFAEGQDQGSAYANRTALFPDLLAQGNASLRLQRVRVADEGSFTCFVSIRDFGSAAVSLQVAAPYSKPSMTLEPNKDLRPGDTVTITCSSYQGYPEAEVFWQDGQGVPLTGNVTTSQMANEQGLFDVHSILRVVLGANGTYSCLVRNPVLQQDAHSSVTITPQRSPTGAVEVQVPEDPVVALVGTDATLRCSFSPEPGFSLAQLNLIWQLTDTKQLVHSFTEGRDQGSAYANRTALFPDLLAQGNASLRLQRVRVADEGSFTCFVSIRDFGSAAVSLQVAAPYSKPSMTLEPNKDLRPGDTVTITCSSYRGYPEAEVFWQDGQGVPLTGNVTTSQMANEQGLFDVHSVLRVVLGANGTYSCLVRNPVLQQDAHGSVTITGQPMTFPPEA
Assay notes: SPR, Carterra LSA; antibody captured on anti-human Fc lawn, 4Ig human B7-H3 as analyte
Answer in s⁻¹, number only, no unit symbol.

Worked set:
get_value(item= L4H2 (antibody, human IgG1, kappa, V domains shown, Humanized IgG1, HEK293; chains tied by the L/H names; also called YB8 L4 + YB8 H2) VH: QVQLQQSGAEVKKPGASVKVSCKASGYTFTNYDINWVRQATGQGLEWIGWIFPGDGSTQYNEKFKGRATLTRNTSISTAYMELSSLRSEDTAVYYCARQTTATWFAYWGQGTLVTVSS VL: EIVMTQSPDFQSVTPKEKVTLTCRASQSISDYLHWYQQKPDQSPKLLIKYASQSISGIPSRFSGSGSGTDFTLTINSVEAEDAGVYYCQNGHSFPLTFGQGTKLEIKR , readout=koff) returns 0.00039

get_value(item= L4H4 (antibody, human IgG1, kappa, V domains shown, Humanized IgG1, HEK293; chains tied by the L/H names; also called YB8 L4 + YB8 H4) VH: QVQLVQSGAEVKKPGASVKVSCKASGYTFTNYDINWVRQATGQGLEWIGWIFPGDGSTQYNEKFQGRVTMTTNTSISTAYMELSSLRSEDTAVYFCARQTTATWFAYWGQGTLVTVSS VL: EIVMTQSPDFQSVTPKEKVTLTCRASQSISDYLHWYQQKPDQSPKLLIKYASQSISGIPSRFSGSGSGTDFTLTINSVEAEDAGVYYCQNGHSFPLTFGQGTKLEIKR , readout=koff) returns 0.00036

get_value(item= L4H3 (antibody, human IgG1, kappa, V domains shown, Humanized IgG1, HEK293; chains tied by the L/H names; also called YB8 L4 + YB8 H3) VH: QVQLVQSGAEVKKPGASVKVSCKASGYTFTNYDINWVRQATGQGLEWMGWIFPGDGSTQYNEKFKGRVTLTRNTSISTAYMELSSLRSEDTAVYFCARQTTATWFAYWGQGTLVTVSS VL: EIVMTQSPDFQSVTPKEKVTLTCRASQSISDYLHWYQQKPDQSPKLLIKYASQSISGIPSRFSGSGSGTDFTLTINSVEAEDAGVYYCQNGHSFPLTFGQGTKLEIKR , readout=koff) returns 0.00039

Continuing:
get_value(item= L3H4 (antibody, human IgG1, kappa, V domains shown, Humanized IgG1, HEK293; chains tied by the L/H names; also called YB8 L3 + YB8 H4) VH: QVQLVQSGAEVKKPGASVKVSCKASGYTFTNYDINWVRQATGQGLEWIGWIFPGDGSTQYNEKFQGRVTMTTNTSISTAYMELSSLRSEDTAVYFCARQTTATWFAYWGQGTLVTVSS VL: EIVMTQSPDFQSVTPKEKVTLTCRASQSISDYLHWYQQKPDQSPKLLIKYASQSISGVPSRFSGSGSGSDFTLTINSLEAEDAGVYYCQNGHSFPLTFGQGTKLEIKR , readout=koff) returns 0.00033

get_value(item= L3H6 (antibody, human IgG1, kappa, V domains shown, Humanized IgG1, HEK293; chains tied by the L/H names; also called YB8 L3 + YB8 H6) VH: QVQLQQSGAEVKKPGASVKLSCKASGYTFTNYDINWVRQATGQGLEWIGWIFPGDGSTQYAQKFQGRATLTTNTSISTAYMELSSLRSEDTAVYFCARQTTATWFAYWGQGTLVTVSS VL: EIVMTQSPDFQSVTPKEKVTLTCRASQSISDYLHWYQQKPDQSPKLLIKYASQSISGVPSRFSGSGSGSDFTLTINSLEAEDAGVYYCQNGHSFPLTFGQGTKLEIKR , readout=koff) returns 0.0005
